Ref: PubChem BioAssay (EPA / NIEHS)

Read-out: Interleukin-8 (IL8), CXCL8 (gene 3576)
Assay: BSK_SAg_IL8: BioMAP Diversity Plus: SAg Assay for Interleukin-8 (IL8) Biomarker Activity (AID 2283094)
Conditions: primary human HUVEC with PBMC; actives raise or lower the signal
Calls of active or inactive are those of the source. How the source made its calls: active means hit-call score of the fitted dose curve at least 0.9, where 1 is the maximum; inactive means score below 0.9.
recordedMetric: AC50

A selection of reference data follows.
1) CCN(CC)C(=O)C(C)Oc1cccc2ccccc12 (centres undefined) : inactive
2) Nc1c(Cl)c(Cl)nc(C(=O)O)c1Cl : inactive
3) COCC(=O)N(c1c(C)cccc1C)C(C)C(=O)OC (centres undefined) : inactive
4) CC(C)=CC1C(C(=O)OCc2coc(Cc3ccccc3)c2)C1(C)C (centres undefined) : 12.7 µM (active)
5) CCOc1nc(C(Cl)(Cl)Cl)ns1 : inactive
6) Clc1cccc(C(Cl)(Cl)Cl)n1 : inactive
7) OC(c1ccc(Cl)cc1)(c1ccc(Cl)cc1)C(Cl)(Cl)Cl : 27.9 µM (active)
8) Cc1cnc(C2=NC(C)(C(C)C)C(=O)N2)c(C(=O)O)c1 (centres undefined) : inactive

### Prompt Determine its reported AC50: `N#Cc1c(Cl)cccc1Cl`
### Response inactive
